target: B1R receptor of the rat (CHO K1 cells stably transfected with the B1R gene of the rat) (Rattus norvegicus); construct: expressed in transfected cells; host or cells: CHO K1 cells (Chinese hamster ovary), stably transfected; assay: Functional study on the bradykinin receptor 1 (B1R), Ca2+ fluorescence (Fluo-4) FLIPR/Novostar assay, rB1R cells; format: cell-based; settings: CHO-K1, 10 μM, read-out: % Inhibition (r-B1R) at 10 μM
Sequence (P97583 whole entry): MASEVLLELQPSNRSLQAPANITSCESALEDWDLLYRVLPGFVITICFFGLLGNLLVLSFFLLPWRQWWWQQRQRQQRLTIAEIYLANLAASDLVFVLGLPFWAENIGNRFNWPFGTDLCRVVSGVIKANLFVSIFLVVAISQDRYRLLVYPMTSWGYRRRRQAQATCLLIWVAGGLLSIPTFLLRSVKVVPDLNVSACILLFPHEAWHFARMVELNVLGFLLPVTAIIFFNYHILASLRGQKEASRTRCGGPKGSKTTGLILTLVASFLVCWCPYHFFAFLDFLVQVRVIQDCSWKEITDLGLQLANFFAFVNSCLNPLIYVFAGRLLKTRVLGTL
Quantity measured: inhibition at 10 µM (%)
Could you give me the number in %? Just the number is fine.

Challenge: Please look up its inhibition at 10 µM: CN(C(=O)c1ccc2c(c1)C(NC(=O)Nc1ccccc1Cl)CC2)C1CCN(c2ccc3cnccc3c2)CC1 (stereo not drawn) [CC_H-365]
Response given: 64

Challenge: Please look up its inhibition at 10 µM: CN(C(=O)c1ccc2c(c1)C(NC(=O)Nc1c(Cl)cccc1Cl)CC2)C1CCN(c2ccc3cnccc3c2)CC1 (stereo not drawn) [CC_H-366]
Response given: 92

Challenge: Please look up its inhibition at 10 µM: CN(C(=O)c1ccc2c(c1)C(NC(=O)c1cc(F)ccc1Cl)CC2)C1CCN(c2ccncc2)CC1 (stereo not drawn) [CC_H-200]
Response given: 111

Challenge: Please look up its inhibition at 10 µM: CN(C(=O)c1ccc2c(c1)C(N(C)C(=O)Nc1ccccc1Cl)CC2)C1CCN(c2ccncc2)CC1 (stereo not drawn) [CC_H-217]
Response given: 94

Challenge: Please look up its inhibition at 10 µM: CN(C(=O)c1ccc2c(c1)C(NC(=O)C1CC1)CC2)C1CCN(c2ccncc2)CC1 (stereo not drawn) [CC_H-205]
Response given: 98

Challenge: Please look up its inhibition at 10 µM: O=C(NCCC1CCN(c2ccncc2)CC1)c1ccc2c(c1)C(NS(=O)(=O)c1c(Cl)cccc1C(F)(F)F)CC2 (stereo not drawn) [CC_H-50]
Response given: 101

Challenge: Please look up its inhibition at 10 µM: CN(C(=O)c1ccc2c(c1)C(NC(=O)Nc1ccc(F)c(Cl)c1)CCC2)C1CCN(c2ccncc2)CC1 (stereo not drawn) [CC_H-265]
Response given: 105

Challenge: Please look up its inhibition at 10 µM: CN(C(=O)NC1CCCc2ccc(C(=O)N(C)C3CCN(c4ccncc4)CC3)cc21)c1ccc(Cl)cc1Cl (stereo not drawn) [CC_H-269]
Response given: 109

Challenge: Please look up its inhibition at 10 µM: CN(C(=O)c1ccc2c(c1)C(NS(=O)(=O)c1c(Cl)cccc1C(F)(F)F)CC2)C1CCN(c2ccncc2)CC1 (stereo not drawn) [CC_H-54]
Response given: 104

====

target: human B1R receptor (CHO K1 cells stably transfected with the human B1R gene) (Homo sapiens); construct: expressed in transfected cells; host or cells: CHO K1 cells (Chinese hamster ovary), stably transfected; assay: Functional study on the bradykinin receptor 1 (B1R), Ca2+ fluorescence (Fluo-4) FLIPR/Novostar assay, hB1R cells; type: cell-based; settings: CHO-K1, read-out: % inhibition (human B1R) at 10 μM
Sequence (P46663 whole entry): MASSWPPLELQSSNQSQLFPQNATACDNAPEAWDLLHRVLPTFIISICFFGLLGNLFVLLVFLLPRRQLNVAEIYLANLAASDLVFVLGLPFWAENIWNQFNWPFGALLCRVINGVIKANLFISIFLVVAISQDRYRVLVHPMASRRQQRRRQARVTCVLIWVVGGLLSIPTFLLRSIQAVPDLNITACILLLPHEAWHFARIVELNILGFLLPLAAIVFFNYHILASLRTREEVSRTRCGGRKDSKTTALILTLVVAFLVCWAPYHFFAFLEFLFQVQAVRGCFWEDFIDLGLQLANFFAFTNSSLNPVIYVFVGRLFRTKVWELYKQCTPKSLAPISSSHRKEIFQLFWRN
So I've got a bunch of compounds here, and I need their inhibition at 10 µM values.
Could you give me the number in %? Just the number is fine.

Challenge: Please look up its inhibition at 10 µM: CN(C(=O)c1ccc2c(c1)[C@H](NC(=O)C1(c3ccccc3Cl)CC1)CC2)C1CCN(c2ccncc2)CC1
Response given: 99

Challenge: Please look up its inhibition at 10 µM: CN(C)c1ncc2c(n1)CCN(C1CCC(N(C)C(=O)c3ccc4c(c3)[C@H](NC(=O)c3ccccc3Cl)CC4)CC1)C2 (stereo partly drawn)
Response given: 68

Challenge: Please look up its inhibition at 10 µM: O=C(NCC1CCCN(c2ccncc2)C1)c1ccc2c(c1)[C@H](NC(=O)c1ccccc1Cl)CC2 (stereo partly drawn)
Response given: 18

Origin of the recorded values: patent US8680159B2
